src = patent US20250011363A1

Known Binding affinity (RU) of a selection of binders
Target: acetylcholine receptor
Test: SPR, peptide at 10 uM, acetylcholine receptor immobilized on chip
Please state the figure in RU; there is no need to write the unit.

Requested read-out: Binding affinity (RU). Entry: RKTMK [5mer-609]
32

// query: RDSER [5mer-608]
20

// query: RNCWK [5mer-926]
22

// query: KDKGR [5mer-636]
11
